Source of measurements: PubChem BioAssay

protocol notes: S. cerevisiae growth inhibition in restrictive medium, OD615, pilot screen, restrictive growth control, yeast lifespan reduction project (AID 706);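 further: modified DeaD lifespan yeast strain shifted to restrictive glucose medium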
assay context: OD615, 48 h, at 10 µM, stronger effect = higher value
property measured: growth inhibition (%)

>>> print(df.to_string())
                                    compound  property_measured  units_text  assay_value
 0  Cc1cc(=O)oc2c1ccc1oc(/C(=N/O)c3ccccc3)c(C)c12  growth inhibition           %         10.6
 1  CCC1Oc2ccccc2N(CC(=O)NCCCN2CCOCC2)C1=O (centres undefined)  growth inhibition           %         4.67
 2     O=C(/C=C/N1CCOCC1)c1ccc(-c2ccccc2)cc1  growth inhibition           %          100
 3   CCCCN(CC)CCNC(=O)c1cc2c(C)nc3ccccc3c2o1  growth inhibition           %         1.23
 4               O=S(=O)(NC1=NCCCCC1)c1cccs1  growth inhibition           %        -16.7
 5  CCOC(=O)N1CCN(C(=O)c2ccc(CS(=O)(=O)c3c(Cl)cccc3Cl)o2)CC1  growth inhibition           %          -14
 6  Cc1c(NC(=O)C2CCCCN2S(=O)(=O)c2ccc(Cl)cc2)c(=O)n(-c2ccccc2)n1C (centres undefined)  growth inhibition           %         -1.4
 7                    Cc1occc1C(=O)NCc1cccs1  growth inhibition           %        -2.95
 8  CCOc1ccc(NC(=O)CSc2nnc(COc3c(C)cccc3C)o2)cc1  growth inhibition           %        -14.3
 9          CCN(C(=O)c1cc(Cl)ccc1OC)c1ccccc1  growth inhibition           %        -19.6
10      Cc1ccccc1-n1nc(C(=O)O)c(C)c(C#N)c1=O  growth inhibition           %        -6.29
11        CCc1cccc(NC(=O)Cn2cc3c(n2)CCCC3)c1  growth inhibition           %        -2.27
12  Cc1ccc(N2CCN(c3cc(C)nc4nc(C)nn34)CC2)c(C)c1  growth inhibition           %         25.7
13               O=C(Nc1ccncc1)c1cc2ccccc2o1  growth inhibition           %        -6.96

* * *

protocol notes: doxorubicin toxicity protection in MRP-1 cells – H69AR cells, CellTiter-Glo, duplicate, MRP-1 activator project, pilot screen (AID 807);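 further: compound pretreatment 18-22 h then 72 h combined with doxorubicin; 0% = doxorubicin alone and 100% = vehicle without doxorubicin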
assay context: H69AR viability with doxorubicin, CellTiter-Glo luminescence; at 10 µM; stronger effect = higher value
property measured: viability increase (%)

In [3]: df
Out[3]:
                                    compound   property_measured  assay_value
 0    CCOC(=O)c1sc(NC(=O)COC(=O)c2ccco2)nc1C  viability increase        -6.43
 1   COc1ccc(S(=O)(=O)Nc2ccc(F)c(Cl)c2)cc1OC  viability increase         -1.4
 2  Cc1ccc(-n2c3c(cc(C(=O)NC4CCSC4=O)c2=O)C(=O)CC(C)(C)C3)cc1 (stereo not given)  viability increase        -2.78
 3      Cc1ccc(C)c(S(=O)(=O)n2cnc3ccccc32)c1  viability increase         0.98
 4  COc1cc2[nH]c(=O)n(CCCCCC(=O)N3CCN(c4ccccn4)CC3)c(=O)c2cc1OC  viability increase        -4.76
 5  O=C(c1ccc(S(=O)(=O)N2CCCCC2)cc1)N1CCN=C1SCc1cccnc1  viability increase         1.27
 6                    Cc1occc1C(=O)NCc1cccs1  viability increase        -1.27
 7  O=C(C(Cc1ccccc1)n1cccc1)N1CCCCCC1 (stereo not given)  viability increase        -2.42
 8  c1cn2c(NC3CCCC3)c(-c3ccc(N4CCOCC4)cc3)nc2cn1  viability increase         -4.3
 9             Brc1ccccc1-c1nc(-c2ccccc2)no1  viability increase        -5.68
10  Cc1nc2ccccc2c2oc(C(=O)N3CCN(C(=O)c4ccco4)CC3)cc12  viability increase        -5.18
11  CCc1cccc(NC(=O)CCS(=O)(=O)c2cccc3nonc23)c1  viability increase        -1.95
12  CCOc1ccc2nc(Nc3nc4c(c(=O)[nH]3)CCC4)nc(C)c2c1  viability increase         0.54
13    c1ccc(-c2nnc(SCc3nc4ccccc4[nH]3)o2)cc1  viability increase        -5.05
14  Cc1nc2sc(C(c3cccs3)N3CCOCC3)c(O)n2n1 (stereo not given)  viability increase        -0.31
15  O=C(C1CCN(S(=O)(=O)c2cccc3cccnc23)CC1)N1CCN(C2CCCCC2)CC1  viability increase        -2.03
16  COc1ccccc1Oc1ccc(S(=O)(=O)N2CCOCC2)cc1S(=O)(=O)N1CCOCC1  viability increase        -0.17
17  CCCCOC(=O)c1[nH]c2c(c1C)C(=O)CC(c1cc(OC)c(OC)c(OC)c1)C2 (stereo not given)  viability increase         1.17
18  COC(=O)CCCCC(=O)C1C(=O)CC(C)(C)C(C(=O)OC)C1=O (stereo not given)  viability increase        -1.69
19  CCC(C(=O)N1CCN(c2cccc(Cl)c2)CC1)c1ccccc1 (stereo not given)  viability increase        -4.98
